Source of measurements: paper PMC12365614

test system: S. mansoni Hop1 CBR WT (Schistosoma mansoni); test: fluorescence polarization; conditions: FP: 20 mM Tris-HCl pH 8, 100 mM Na glutamate, 5 mM MgCl2, 3% glycerol, 0.5 mM BME, 50 nM DNA, 4 C 30 min; EMSA: 20 mM Hepes pH 7, 100 mM NaCl, 100 uM ZnCl2, 10%
METRIC_NAME: Kd (µM)
// units = µM; emit number, no label

[ask] Returns the measured Kd for the input sequence. Input: CTTATATCTGAATAGTCAGT (double strand) [20-bp FAM duplex]
[reply] 16
